pIC50: −log10 of the molar value.
Sterol O-acyltransferase 1 (Rattus norvegicus, UniProt O70536) measurements of pIC50, listed per entry.
Sequence (O70536 whole entry): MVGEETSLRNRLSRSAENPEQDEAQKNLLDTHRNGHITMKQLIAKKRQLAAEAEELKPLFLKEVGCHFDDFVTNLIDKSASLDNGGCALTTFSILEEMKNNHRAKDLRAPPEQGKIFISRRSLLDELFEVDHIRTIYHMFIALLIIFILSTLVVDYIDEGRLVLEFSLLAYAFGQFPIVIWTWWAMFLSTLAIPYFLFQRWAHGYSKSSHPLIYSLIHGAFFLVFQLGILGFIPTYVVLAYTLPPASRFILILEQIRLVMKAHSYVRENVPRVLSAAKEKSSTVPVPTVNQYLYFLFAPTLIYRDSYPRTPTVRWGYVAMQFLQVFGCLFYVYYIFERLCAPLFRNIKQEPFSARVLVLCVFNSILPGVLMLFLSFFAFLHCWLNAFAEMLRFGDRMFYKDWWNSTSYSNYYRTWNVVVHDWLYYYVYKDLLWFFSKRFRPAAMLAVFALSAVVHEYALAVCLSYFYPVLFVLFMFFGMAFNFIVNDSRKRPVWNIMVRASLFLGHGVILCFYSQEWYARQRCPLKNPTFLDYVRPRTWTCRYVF
observed.property: pIC50

[[record]]
query_smiles = "c1ccc(-c2nc(SCCOCCSc3nc(-c4ccccc4)c(-c4ccccc4)[nH]3)[nH]c2-c2ccccc2)cc1"
observed_measurement = 7.59

[[record]]
query_smiles = "CC(C)NC(=O)N(CCCCCSc1nc(-c2ccccc2)c(-c2ccccc2)[nH]1)CCCCCSc1nc(-c2ccc(N(C)C)cc2)c(-c2ccc(N(C)C)cc2)[nH]1"
observed_measurement = 7.52

[[record]]
query_smiles = "COc1ccc(-c2nc(SCCCCCN(CCc3ccccn3)C(=O)NC(C)C)[nH]c2-c2ccc(OC)cc2)cc1"
observed_measurement = 6.59

[[record]]
query_smiles = "O=C(Nc1ccc(F)cc1F)N(CCCCCSc1nc(-c2ccccc2)c(-c2ccccc2)[nH]1)c1ccccn1"
observed_measurement = 6.18

[[record]]
query_smiles = "CN(C)c1ccc(-c2nc(SCCCCCN(CCCCCSc3nc(-c4ccccc4)c(-c4ccccc4)[nH]3)C(=O)Nc3ccc(F)cc3F)[nH]c2-c2ccc(N(C)C)cc2)cc1"
observed_measurement = 8.52

[[record]]
query_smiles = "c1ccc(-c2nc(SCCCCCSCc3ccccn3)[nH]c2-c2ccccc2)cc1"
observed_measurement = 6.51

[[record]]
query_smiles = "COc1ccc(-c2nc(SCCCCCN(CCCCCSc3nc(-c4ccccc4)c(-c4ccccc4)[nH]3)C(=O)NC(C)C)[nH]c2-c2ccc(OC)cc2)cc1"
observed_measurement = 7.05

[[record]]
query_smiles = "COc1ccc(-c2nc(SCCCCCN(Cc3ccccn3)C(=O)NC(C)C)[nH]c2-c2ccc(OC)cc2)cc1"
observed_measurement = 5.21

[[record]]
query_smiles = "CC(C)NC(=O)N(CCCCCSc1nc(-c2ccccc2)c(-c2ccccc2)[nH]1)c1ccccn1"
observed_measurement = 7.00

[[record]]
query_smiles = "Cc1nc2ccccc2n1CCCSCCCSc1nc(-c2ccccc2)c(-c2ccccc2)[nH]1"
observed_measurement = 6.60

[[record]]
query_smiles = "CC(C)NC(=O)N(CCCCCSc1nc(-c2ccccc2)c(-c2ccccc2)[nH]1)CCc1ccccn1"
observed_measurement = 6.72

[[record]]
query_smiles = "O=C(Nc1ccc(F)cc1F)N(CCCCCSc1nc(-c2ccccc2)c(-c2ccccc2)[nH]1)CCc1ccccn1"
observed_measurement = 7.10


---

pIC50: −log10 of the molar value.
Sterol O-acyltransferase 1 (Mus musculus) measurements of pIC50, listed per entry.
Sequence (Q61263 whole entry): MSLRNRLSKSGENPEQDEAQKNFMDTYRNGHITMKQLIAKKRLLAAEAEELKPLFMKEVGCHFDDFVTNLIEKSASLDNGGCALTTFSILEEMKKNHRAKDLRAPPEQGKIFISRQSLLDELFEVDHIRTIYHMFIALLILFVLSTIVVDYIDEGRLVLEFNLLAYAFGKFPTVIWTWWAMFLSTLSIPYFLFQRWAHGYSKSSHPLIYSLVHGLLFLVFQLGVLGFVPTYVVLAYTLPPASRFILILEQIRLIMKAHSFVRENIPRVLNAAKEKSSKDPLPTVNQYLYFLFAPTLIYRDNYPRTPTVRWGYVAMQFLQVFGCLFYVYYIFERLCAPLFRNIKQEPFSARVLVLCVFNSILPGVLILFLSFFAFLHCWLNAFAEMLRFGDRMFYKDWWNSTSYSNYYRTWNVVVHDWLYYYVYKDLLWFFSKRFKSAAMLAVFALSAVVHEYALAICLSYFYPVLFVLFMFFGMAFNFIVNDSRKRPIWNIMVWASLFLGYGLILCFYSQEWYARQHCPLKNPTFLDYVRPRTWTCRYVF
observed.property: pIC50

[[record]]
query_smiles = "COc1ccc(-c2nc(SCCCCCN(CCCCCSc3nc(-c4ccc(OC)cc4)c(-c4ccc(OC)cc4)[nH]3)C(=O)NC(C)C)[nH]c2-c2ccc(OC)cc2)cc1"
observed_measurement = 8.00

[[record]]
query_smiles = "CN(C)c1ccc(-c2nc(SCCOCCSc3nc(-c4ccc(N(C)C)cc4)c(-c4ccc(N(C)C)cc4)[nH]3)[nH]c2-c2ccc(N(C)C)cc2)cc1"
observed_measurement = 6.43

[[record]]
query_smiles = "COc1ccc(-c2nc(SCCCCCN(Cc3ccccn3)C(=O)Nc3ccc(F)cc3F)[nH]c2-c2ccc(OC)cc2)cc1"
observed_measurement = 6.72

[[record]]
query_smiles = "COc1ccc(-c2nc(SCCCCCN(CCc3ccccn3)C(=O)Nc3ccc(F)cc3F)[nH]c2-c2ccc(OC)cc2)cc1"
observed_measurement = 6.16

[[record]]
query_smiles = "COc1ccc(-c2nc(SCCCCCN(CCc3nn[nH]n3)C(=O)NC(C)C)[nH]c2-c2ccc(OC)cc2)cc1"
observed_measurement = 5.26

[[record]]
query_smiles = "COc1ccc(-c2nc(SCCCCCN(Cc3ccccn3)C(=O)NC(C)C)[nH]c2-c2ccc(OC)cc2)cc1"
observed_measurement = 7.22

[[record]]
query_smiles = "O=C(Nc1ccc(F)cc1F)N(CCCCCSc1nc(-c2ccccc2)c(-c2ccccc2)[nH]1)c1ccccn1"
observed_measurement = 6.10

[[record]]
query_smiles = "CC(C)NC(=O)N(CCCCCSc1nc(-c2ccccc2)c(-c2ccccc2)[nH]1)CCCCCSc1nc(-c2ccc(N(C)C)cc2)c(-c2ccc(N(C)C)cc2)[nH]1"
observed_measurement = 7.22

[[record]]
query_smiles = "CC(C)NC(=O)N(CCCCCSc1nc(-c2ccccc2)c(-c2ccccc2)[nH]1)c1ccccn1"
observed_measurement = 6.03

[[record]]
query_smiles = "COc1ccc(-c2nc(SCCOCCn3c(C)nc4ccccc43)[nH]c2-c2ccc(OC)cc2)cc1"
observed_measurement = 5.46

[[record]]
query_smiles = "COc1ccc(-c2nc(SCCCCCN(CCCn3ccnc3)C(=O)NC(C)C)[nH]c2-c2ccc(OC)cc2)cc1"
observed_measurement = 5.26

[[record]]
query_smiles = "COc1ccc(-c2nc(SCCOCCSc3nc(-c4ccccc4)c(-c4ccccc4)[nH]3)[nH]c2-c2ccc(OC)cc2)cc1"
observed_measurement = 5.41

[[record]]
query_smiles = "CN(C)c1ccc(-c2nc(SCCOCCSc3[nH]cnc4ncnc3-4)[nH]c2-c2ccc(N(C)C)cc2)cc1"
observed_measurement = 5.52

[[record]]
query_smiles = "c1ccc(-c2nc(SCCCSCCCSc3nc(-c4ccccc4)c(-c4ccccc4)[nH]3)[nH]c2-c2ccccc2)cc1"
observed_measurement = 5.10

[[record]]
query_smiles = "c1ccc(-c2nc(SCCOCCSc3nc(-c4ccccc4)c(-c4ccccc4)[nH]3)[nH]c2-c2ccccc2)cc1"
observed_measurement = 5.18


Source: BindingDB's records for doi:10.7270/Q2T72HDT
